The following compounds each carry a recorded IC50 for calf intestinal alkaline phosphatase (CIAP) (Bos taurus, UniProt P19111).
Field format: number, assumed µM, no unit text.

For the compound O=C(O)c1nc(CO)c2cc[nH]c2c1O [guitarrin D] , what IC50 is on record? 230

Also O=C(O)c1cc2[nH]ccc2c(CO)n1 [guitarrin C] ? 195
